- test.description: probe aShh binding to arrayed compounds – biochemical, biotinylated probe, 635/667 nm fluorescence, primary screen (AID 1114);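 also: probe is biotin-labelled aShh protein from a stem cell growth factor screen; measures binding of labelled protein to compounds printed on the slide; score merges feature fluorescence at 667 nm with signal-to-noise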
- setup.conditions: small-molecule microarray, higher = more signal
Classify by measured composite z-score: 1 if it is equal to or exceeds -0.08, 0 if it is smaller.

Request: Would you say `COC(=O)c1c(CC[C@@H](CO)NC(=O)N[C@H](Cc2ccccc2)Cn2cc(-c3ccccn3)nn2)oc(C(C)=O)c1C(=O)OC` shows composite z-score at minimum -0.08?
Response: 0

Request: Would you say CCCCN1CC=CC23O[C@@H]4C=CCOC(=O)[C@@H]4[C@H]2C(=O)N(CCCCCCO)[C@@H]3C1=O (stereo not given in full) shows composite z-score at minimum -0.08?
Response: 0

Request: Would you say `COc1ccc(-c2cc3c(c(Cc4ccccc4)n2)[Si](C(C)C)(C(C)C)OC3)cn1` shows composite z-score at minimum -0.08?
Response: 0

Request: Would you say `NCCCCCNC(=O)[C@H]1C[C@H]2C(=O)N3CCC[C@H]3C(=O)N2[C@H]1c1ccc(O)cc1` shows composite z-score at minimum -0.08?
Response: 1

Request: Would you say O=C(O)C1N=C(c2ccc(OCCCO)cc2)N(c2ccccc2)O1 (stereo not given) shows composite z-score at minimum -0.08?
Response: 1

###

Could you please report measured composite z-score for the items listed next?
- Test system: Sam68 (KHDRBS1)
- test.description: compounds binding KHDRBS1 protein – biochemical, small-molecule microarray, 635 nm fluorescence, primary screen (AID 1125);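 also: score merges 667 nm channel intensity with signal to noise over triplicate slides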
- setup.conditions: higher = more signal

Entry `COc1ccc([Si](C)(C)[C@H]2[C@H](CCn3cc([C@H](O)c4ccccc4)nn3)O[C@@]3(C(=O)N(C)c4ccccc43)[C@@H]2C)cc1` , composite z-score reported as 0.106

Entry `COc1ccc([C@H]2C[C@H]3C(I)=C[C@@H]2C(=O)[C@]32CO2)cc1` , composite z-score reported as -0.889

Entry `C=CCNC(=O)[C@H]1[C@@H]2C(=O)O[C@@H](c3ccccc3)[C@@H](c3ccccc3)N2[C@@H](c2ccc(OCCO)cc2)[C@]12C(=O)Nc1ccc(C#CCC(C(=O)OC)C(=O)OC)cc12` , composite z-score reported as 1.3

###

Could you please report measured composite z-score for the items listed next?
- test.description: probe aShh binding to arrayed compounds – biochemical, biotinylated probe, 635/667 nm fluorescence, primary screen (AID 1114);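 also: probe is biotin-labelled aShh protein from a stem cell growth factor screen; measures binding of labelled protein to compounds printed on the slide; score merges feature fluorescence at 667 nm with signal-to-noise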
- setup.conditions: small-molecule microarray, higher = more signal
Answer using only a numeral; do not append any unit.

Entry `CC(C)OC(=O)C=C1C[C@@H](c2cccc(Cl)c2)O[C@@H](c2cccc(Cl)c2)O1` , composite z-score reported as -0.0035

Entry `CO[C@H]1O[C@H](CO)[C@@H](OC(=O)Nc2cccc(F)c2)[C@H](OC(=O)Nc2ccccc2)[C@H]1OC(=O)Nc1ccccc1` , composite z-score reported as 0.536

Entry `COC(=O)C(CC#Cc1ccc2c(c1)[C@]1(C(=O)N2)[C@H](c2ccccc2OCCO)N2[C@H](c3ccccc3)[C@H](c3ccccc3)OC(=O)[C@H]2[C@@H]1C(=O)O)C(=O)OC` , composite z-score reported as 0.218

Entry CC(=O)n1cc(C(O)C2C=CC3C(=O)NC(=O)C3N2Nc2ccccn2)c2ccccc21 (stereo not given) , composite z-score reported as -0.138

Entry `NC(=O)[C@@H]1[C@H]2C(=O)O[C@H](c3ccccc3)[C@H](c3ccccc3)N2[C@H](c2ccc(OCCO)cc2)[C@@]12C(=O)Nc1ccc(C#CC3=CCCCC3)cc12` , composite z-score reported as 0.031

Entry `COC(=O)c1c(CC[C@@H](CO)NC(=O)N[C@@H](Cc2ccccc2)Cn2cc(-c3ccccn3)nn2)oc(C(=O)N2CCOCC2)c1C(=O)OC` , composite z-score reported as 0.0796

Entry `CC(C)[C@@H](C(=O)O)n1cc(C2(O)CCCCC2)nn1` , composite z-score reported as -0.0738

Entry `O=C(NC1CC1)[C@@H]1c2ccccc2C(=O)N(Cc2cc(F)cc(C(F)(F)F)c2)[C@H]1c1ccc(CO)cc1` , composite z-score reported as -0.0709

Entry `CC(C)[Si](C#C[Si](C(C)C)(C(C)C)C(C)C)(O[C@H](C)c1cn(Cc2ccccc2)nn1)C(C)C` , composite z-score reported as -0.221

Entry C[C@H]1C2[C@H](Cc3ccccc3)NC(=O)[C@]23C(=O)NCC(=O)N2CCC[C@H]2C(=O)NC/C=C/CCC/C=C/C3[C@@H]2O[C@]12C (stereo not given in full) , composite z-score reported as -0.138

Entry CCCCN1CC=CC23O[C@@H]4/C=C\CCCOC(=O)C4[C@H]2C(=O)N(CCCO)[C@@H]3C1=O (stereo not given in full) , composite z-score reported as -0.0211

Entry `COCCCNC(=O)[C@@]1(Sc2ccc(C)cc2)CC(=O)N(Cc2ccccc2Cl)[C@@H]1c1ccc(CO)cc1` , composite z-score reported as 0.275

Entry `NC(=O)[C@@]1(Cc2ccccc2)N=C(c2ccc(OCCCO)cc2)O[C@H]1c1ccccc1` , composite z-score reported as 0.629

Entry O=C1NC(=O)C2C1C=CC(C(O)C1CC=CCC1)N2Nc1ccccn1 (stereo not given) , composite z-score reported as -0.147

Entry `COCCCNC(=O)[C@@]1(Cc2ccccc2CN=[N+]=[N-])N=C(c2ccc(OCCCO)cc2)O[C@H]1c1ccccc1CN=[N+]=[N-]` , composite z-score reported as 0.311

Entry `COCCCNC(=O)[C@@H]1c2ccccc2C(=O)N(Cc2ccccc2)[C@H]1c1ccc(CO)cc1` , composite z-score reported as 0.131

Entry `CC(C)[Si](C#CCCCC#N)(Oc1ccccc1Br)C(C)C` , composite z-score reported as -0.0553

Entry `C=CCNC(=O)[C@@H]1[C@H]2C(=O)O[C@H](c3ccccc3)[C@H](c3ccccc3)N2[C@H](c2ccc(OCCO)cc2)[C@@]12C(=O)N(C(=O)OCCOC)c1ccc(C#CCNC(N)=O)cc12` , composite z-score reported as 0.275

Entry `CCOC(=O)C[C@H]1[C@H](OC(=O)c2ccc(-c3ccccc3)cc2)[C@@H](NC(=O)c2ccccc2)c2cc(OCCCO)ccc2N1C(=O)Cc1ccc(OC)cc1` , composite z-score reported as -0.147

Entry `C#CCNCc1ccccc1` , composite z-score reported as -0.291

Entry `Cc1ccc(S[C@]2(C(=O)O)CC(=O)N(C(C)C)[C@@H]2c2ccc(CO)cc2)cc1` , composite z-score reported as 0.216

Entry `CC(=CC1CCCCC1)[C@@H](NC(=O)c1cccnc1)c1ccc(-c2ccccc2)cc1` , composite z-score reported as -0.0403

Entry `COc1ccc(C(=O)Nc2ccc(CN3C(=O)[C@]4(O[C@H](CC(=O)N5CCC[C@H]5CO)[C@@H]([Si](C)(C)c5ccc(OC)cc5)[C@@H]4C)c4ccccc43)cc2)cc1` , composite z-score reported as 0.0639

Entry `Cc1ccc(S(=O)(=O)N2C[C@@H](C(=O)O)[C@H](Sc3ccccc3)C[C@H]2c2ccccc2)cc1` , composite z-score reported as 0.0684

Entry `CC(C)(C)OC(=O)CC[C@]1(C(=O)NCCN2CCOCC2)COC(c2ccc(OCCCO)cc2)=N1` , composite z-score reported as -0.0066

Entry `Cc1ccc(S[C@]2(C(=O)NCC(C)C)CC(=O)N(Cc3cc(C(F)(F)F)cc(C(F)(F)F)c3)[C@@H]2c2ccc(CO)cc2)cc1` , composite z-score reported as -0.153

Entry `[N-]=[N+]=NCc1ccccc1[C@@H]1OC(c2ccc(OCCCO)cc2)=N[C@]1(CCS(=O)(=O)c1ccccc1)C(=O)N1CCCCC1` , composite z-score reported as 0.333

Entry `COC(=O)c1c(CC[C@@H](CO)NC(=O)NCCc2c[nH]c3ccccc23)oc(C(=O)Cc2ccccc2)c1C(=O)OC` , composite z-score reported as -0.0011

Entry `CN(C)CCCCCCNC(=O)[C@@H]1C[C@@H]2C(=O)N[C@@H](CCCC[N+](C)(C)C)C(=O)N2[C@@H]1c1ccc(O)cc1` , composite z-score reported as -0.358

Entry `CC(C)[Si](C#CCCCC#N)(O[C@H](c1ccccc1)c1cn(Cc2cccc(Cl)c2)nn1)C(C)C` , composite z-score reported as -0.0553

###

- test.description: viability profiling in RPMI8226 myeloma cells – cell-based, resazurin fluorescence, basal, 24 h, PK04 Diversity Set, profiling panel (AID 1180);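 also: RPMI8826 multiple myeloma cell line at 5000 cells per well; test concentration not given here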
- setup.conditions: higher = more signal
attribute.measured: z-score
Answer using only a numeral; do not append any unit.

Entry `COCCOC(=O)N1C(=O)[C@@]2(c3ccccc31)[C@H](c1ccc(OCCO)cc1)N1[C@H](c3ccccc3)[C@H](c3ccccc3)OC(=O)[C@H]1[C@@H]2C(=O)N1CCc2cc(OC)c(OC)cc2C1` , z-score reported as 0.994

Entry `C=CC[C@]12N=C(c3ccc(OCCCO)cc3)O[C@H]1c1ccccc1N(CCS(=O)(=O)c1ccccc1)C2=O` , z-score reported as -0.585

Entry `NC(=O)[C@@H]1[C@H]2C(=O)O[C@H](c3ccccc3)[C@H](c3ccccc3)N2[C@H](c2ccc(OCCO)cc2)[C@@]12C(=O)Nc1ccc(C#CC3=CCCCC3)cc12` , z-score reported as -6.82
